These data points were gathered from ChEMBL document CHEMBL3608251.

As shown below, each of these compounds has a reported Ratio Ki value.
organism: Homo sapiens; test: Selectivity ratio of Ki for human recombinant carbonic anhydrase 2 to Ki for human recombinant carbonic anhydrase 1
experimental_endpoint: Ratio Ki

NS(=O)(=O)c1cc(-c2cnc(C3CC3)o2)cs1; 1000
NS(=O)(=O)c1ccc(-c2cnc(C(=O)N3CCCC3)o2)s1; 1000
NS(=O)(=O)c1ccc(-c2cnc(C3CC3)o2)s1; 1000
Cc1ncc(-c2csc(S(N)(=O)=O)c2)o1; 1000
NS(=O)(=O)c1cc(-c2cnc(C(=O)N3CCCC3)o2)cs1; 1000
NS(=O)(=O)c1cc(-c2cnc(C(=O)N3CCOCC3)o2)cs1; 1000
NS(=O)(=O)c1cc(-c2cnc(C3CCC3)o2)cs1; 1000
NS(=O)(=O)c1ccc(-c2cnc(C3CCC3)o2)s1; 1000
Cc1ncc(-c2ccc(S(N)(=O)=O)s2)o1; 1000
